- experimental-conditions: human gut metagenome, 24 h, 2 µM; further: call rule not given here
quantity-name: Bacterial Biotransformation

These recorded examples may help you get a feel for the data.
{"columns": ["compound", "endpoint-value"],
 "data": [
  ["CC(CN(C)C)CN1c2ccccc2CCc2ccccc21.O=C(O)/C=C\\C(=O)O (stereo unspecified) [TRIMIPRAMINE MALEATE]", "Compound metabolized"],
  ["CC(Oc1c(Cl)cccc1Cl)C1=NCCN1 (stereo unspecified) [LOFEXIDINE]", "Compound NOT metabolized"],
  ["Cc1ccc(S(=O)(=O)NC(=O)NN2CC3CCCC3C2)cc1 (stereo unspecified) [GLICLAZIDE]", "Compound metabolized"],
  ["Cc1cn([C@H]2C[C@H](N=[N+]=[N-])[C@@H](CO)O2)c(=O)[nH]c1=O [ZIDOVUDINE]", "Compound NOT metabolized"],
  ["CCN(CC)C(=O)/C(C#N)=C/c1cc(O)c(O)c([N+](=O)[O-])c1 [ENTACAPONE]", "Compound metabolized"],
  ["CCCc1nn(C)c2c(=O)[nH]c(-c3cc(S(=O)(=O)N4CCN(C)CC4)ccc3OCC)nc12.O=C(O)CC(O)(CC(=O)O)C(=O)O [SILDENAFIL CITRATE]", "Compound NOT metabolized"]
]}

Give measured Bacterial Biotransformation for every item shown.
1. O=C(O)CCc1nc(-c2ccccc2)c(-c2ccccc2)o1 [OXAPROZIN]
2. CC(C(=O)O)c1ccc2c(c1)Cc1cccnc1O2 (stereo unspecified) [PRANOPROFEN]
3. CCN(CC)CC#CCOC(=O)C(O)(c1ccccc1)C1CCCCC1.Cl (stereo unspecified) [OXYBUTYNIN CHLORIDE]
4. CC(O)(CS(=O)(=O)c1ccc(F)cc1)C(=O)Nc1ccc(C#N)c(C(F)(F)F)c1 (stereo unspecified) [BICALUTAMIDE]
5. CC[C@@H](CO)NC(=O)[C@@H]1C=C2c3cccc4c3c(cn4C)C[C@H]2N(C)C1.O=C(O)/C=C\C(=O)O [METHYSERGIDE MALEATE]
6. CCN1CCCC1CNC(=O)c1cc(S(N)(=O)=O)ccc1OC (stereo unspecified) [SULPIRIDE]

Result string:
["Compound metabolized", "Compound metabolized", "Compound metabolized", "Compound NOT metabolized", "Compound NOT metabolized", "Compound metabolized"]

Give measured Bacterial Biotransformation for every item shown.
1. CCCC1O[C@@H]2C[C@H]3[C@@H]4CCC5=CC(=O)C=C[C@]5(C)[C@H]4[C@@H](O)C[C@]3(C)[C@]2(C(=O)CO)O1 (stereo partly specified) [BUDESONIDE]
2. CCN(CC)CCOCCOC(=O)C1(c2ccccc2)CCCC1.O=C(O)CC(O)(CC(=O)O)C(=O)O [CARBETAPENTANE CITRATE]
3. COc1cc2c(c(OC)c1OC)-c1ccc(OC)c(=O)cc1[C@@H](NC(C)=O)CC2 [COLCHICINE]
4. Cc1nc2n(c(=O)c1CCN1CCC(c3noc4cc(F)ccc34)CC1)CCCC2 [RISPERIDONE]

Result string:
Compound metabolized
Compound metabolized
Compound metabolized
Compound metabolized

* * *

- experimental-conditions: human gut metagenome, 24 h, 2 µM
quantity-name: Bacterial Biotransformation

{"columns": ["molecule", "Bacterial Biotransformation"],
 "data": [
  ["CCC(COC(=O)c1cc(OC)c(OC)c(OC)c1)(c1ccccc1)N(C)C.O=C(O)/C=C\\C(=O)O (stereo not drawn)", "Compound metabolized"],
  ["CC(=O)OCC(=O)[C@@]1(O)[C@@H](C)C[C@H]2[C@@H]3CCC4=CC(=O)C=C[C@]4(C)[C@@]3(F)[C@@H](O)C[C@@]21C [BETAMETHASONE ACETATE]", "Compound metabolized"],
  ["CO[C@]12C[C@@H](COC(=O)c3cncc(Br)c3)CN(C)[C@@H]1Cc1cn(C)c3cccc2c13", "Compound metabolized"],
  ["C#C[C@]1(O)CC[C@H]2[C@@H]3CCC4=Cc5oncc5C[C@]4(C)[C@H]3CC[C@@]21C", "Compound metabolized"],
  ["O=C(O)COCCN1CCN(C(c2ccccc2)c2ccc(Cl)cc2)CC1 (stereo not drawn)", "Compound metabolized"]
]}

Give measured Bacterial Biotransformation for every item shown.
1. Cc1cn([C@H]2C[C@H](N=[N+]=[N-])[C@@H](CO)O2)c(=O)[nH]c1=O
2. CNS(=O)(=O)Cc1ccc2[nH]cc(CCN(C)C)c2c1.O=C(O)CCC(=O)O [SUMATRIPTAN SUCCINATE]

Result string:
Compound NOT metabolized
Compound NOT metabolized

Query string: Consider the molecule shown here: COc1ccc2[nH]c([S+]([O-])Cc3ncc(C)c(OC)c3C)nc2n1 (stereo not drawn) What is its recorded Bacterial Biotransformation?
Result string: Compound metabolized
